This collection of values is drawn from PubChem BioAssay (NCI).

# Tested on: M14 melanoma
# protocol_text: NCI tumour cell line growth inhibition, 48 h
TGI for assorted compounds
Write down the numeric answer in µM and omit the unit.

Use the examples below as a reference point.
CCC(C)C(=O)c1c(O)c(C/C=C(\C)CCC=C(C)C)c(O)c2c(C(O)CC)cc(=O)oc12 (stereo not given) = 14.4
CCCCCCCCCCCCCCCCCCCCCC(=O)Nc1ccn(C2OC(CO)C(O)C2O)c(=O)n1 (stereo not given) = 32.6
c1ccc(CSc2nc(N3CCOCC3)c3cn[nH]c3n2)cc1 = 49

Now take the following compound into account.
Lab note: need TGI for C=C1C(=O)O[C@H]2[C@H]1CC/C(COC(=O)N1CCC[C@H]1C(=O)Nc1ccc(OC)c(C(N)=O)c1O)=C\CC[C@@]1(C)O[C@@H]21 on M14 melanoma, anyone have it?
4.19

---

# System: SF-295 CNS
# protocol_text: NCI tumour cell line growth inhibition, 48 h
TGI for assorted compounds
Write down the numeric answer in µM and omit the unit.

CCc1cc(O)c(Cl)c(C)c1Cl = 42.5
c1ccc(CSc2nc(N3CCOCC3)c3cn[nH]c3n2)cc1 = 78
O=C(CN1CCN(c2ccccc2)CC1)N1CCc2c([nH]c3ccccc23)C1c1cccnc1 (stereo unspecified) = 84.8
O=C(CCl)N1c2ccccc2Sc2c1ccc1ccccc21 = 6.53
COc1ccc(-c2cncn2-c2ccc(OC)cc2)cc1 = 47

So what does the record say about TGI for S=c1[nH]c(=S)c2cc(Sc3ccc4[nH]c(=S)[nH]c(=S)c4c3)ccc2[nH]1 ?
47.1

Ok, now O=[N+]([O-])c1ccc2nc(/C=C(\O)c3ccc(F)cc3)c(/C=C(\O)c3ccc(F)cc3)nc2c1
57.6

Ok, now CCC1C(c2cc(OC)c(OC)c(OC)c2)c2cc3c(cc2OC1N1CCOCC1)OCO3 (stereo unspecified)
8.52

Ok, now CC(CNC(Cc1ccccc1)c1ccccc1)NC(Cc1ccccc1)c1ccccc1 (stereo unspecified)
3.27

---

# Tested on: OVCAR-3 ovarian
# protocol_text: NCI tumour cell line growth inhibition, 48 h
TGI for assorted compounds
Write down the numeric answer in µM and omit the unit.

Use the examples below as a reference point.
c1cnc2[nH]cc(-c3csc(-c4cn(CCCCN5CCOCC5)c5ccccc45)n3)c2c1 = 3.17
CCC(CC)n1c(C)nc2c1C(=O)c1ccccc1C2=O = 75.7
COC(=O)CNC(=O)[C@@H](OC)[C@@H]1Cc2cc3cc(OC4CC(OC5CC(O)C(O)C(C)O5)C(O)C(C)O4)c(C)c(O)c3c(O)c2C(=O)[C@H]1OC1CC(OC2CC(OC3CC(C)(O)C(O)C(C)O3)C(O)C(C)O2)C(O)C(C)O1 (stereo not given in full) = 4.27

Now take the following compound into account.
Lab note: need TGI for O=[N+]([O-])c1cn[n+]([O-])c2ccccc12 on OVCAR-3 ovarian, anyone have it?
7.28

---

# Tested on: SF-295 CNS
# protocol_text: NCI tumour cell line growth inhibition, 48 h
readout: TGI

Use the examples below as a reference point.
Cc1cc(=O)oc2cc3c(cc12)Oc1ccccc1O3 = > 100 µM
O=C(CSC(=S)N1CCOCC1)Nc1nc2c(s1)CCCC2 = > 100 µM
O=C(N/N=C\c1ccc2ccccc2c1)Nc1ccc([N+](=O)[O-])cc1 = > 68.9 µM
COc1ccc(CC(C)N)cc1 (stereo not given) = > 100 µM

Now take the following molecule into account.
So what does the record say about TGI for C(=C\C(SCc1ccccc1)SCc1ccccc1)/c1ccccc1 ?
> 10 µM

---

# Tested on: SW-620 colon
# protocol_text: NCI tumour cell line growth inhibition, 48 h
Would you mind labelling by TGI? At or over 70 µM is satisfied, under is not satisfied.

Here are 5 compounds together with their reported answers.
C#C[C@]1(O)CC[C@H]2[C@@H]3CCc4cc(OC(=O)c5cccc6cc7ccccc7nc56)ccc4[C@H]3CC[C@@]21C = satisfied
CC[C@@H](/C=C\CCC1(C[C@H](O)CCC=C(C)C)OCCO1)O[Si](C(C)C)(C(C)C)C(C)C = satisfied
OCCCCCCOc1ccc(-c2cc(-c3ccccn3)nc(-c3ccccn3)c2)cc1 = not satisfied
c1cnc2[nH]cc(-c3csc(-c4cn(CCCCN5CCOCC5)c5ccccc45)n3)c2c1 = not satisfied
C#CC[C@@H]1C[C@]2(C)[C@H]3CC=C4[C@H]5CC(C)(C)CC[C@]5(C(=O)NCCCCN)CC[C@@]4(C)[C@]3(C)CC[C@H]2C(C)(C)[C@H]1OC(C)=O = not satisfied

State whether the measured TGI reaches 70 µM, counting equality as reaching it, for CN(C)c1ccc(/C=C/C=C(/C#N)c2ccccc2)cc1
satisfied

Ok, now CNC(=S)N/N=C/c1cccc(C)n1
satisfied

Ok, now COc1ccccc1N1CCN(Cn2c(=O)oc3cccnc32)CC1
satisfied

Ok, now CC12Cc3cc4c(cc3C1(c1ccc([N+](=O)[O-])cc1)OCCO2)OCO4 (centres undefined)
satisfied

---

TGI for assorted compounds
# Test system: SK-MEL-5 melanoma
# protocol_text: NCI tumour cell line growth inhibition, 48 h

Use the examples below as a reference point.
Cc1ccc(S(N)(=O)=O)cc1 = > 1000 µM
CN(C)c1ccc(N=Nc2ccccn2)cc1 = > 100 µM
CO/N=C(\C)c1ccc(Nc2cc(-c3ccccc3)nc3c(O)cccc23)cc1 = 91.4 µM
CC(=O)O[C@@H]1CC2C(C)(C)CCCC2(C)C2=C1C(=O)C(C(C)C)=CC2=O (stereo partly specified) = 1.84 µM

So what does the record say about TGI for Fc1cccc(COc2ccc(Nc3ncnc4cc(-c5ccc[nH]5)sc34)cc2Cl)c1 ?
> 25 µM

Ok, now CC1S(=O)(=O)OCCOS1(=O)=O
> 100 µM

Ok, now CCC(CCCC[C@@H]1CC[C@H]2CC(=O)C[C@@H]12)OC (stereo partly specified)
> 100 µM

Ok, now CCOC(=O)NN1C(=O)C(=P(c2ccccc2)(c2ccccc2)c2ccccc2)C(C(=O)OCC)=C1C
> 100 µM

---

# Tested on: HT29 colon
# protocol_text: NCI tumour cell line growth inhibition, 48 h; in the data active = GI50 below about 0.43 µM; inactive = the rest
Mark one answer only. Choices: Y for active, N for inactive

Here are 6 compounds together with their reported answers.
Fc1ccc2[nH]c3c(NCCCN4CCOCC4)ncnc3c2c1 = N
O=C1C(Cl)=C(Nc2cccc(O)c2)C(=O)N1c1cc(Cl)c(Cl)cc1Cl = N
ClCc1c(Cl)c(Cl)c(Cl)c(CCl)c1Cl = N
C=C1C(=O)O[C@H]2[C@H]1CC/C(COC(=O)N1CCC[C@H]1C(=O)Nc1ccc(OC)c(C(N)=O)c1O)=C\CC[C@@]1(C)O[C@@H]21 = N
COc1cc(Nc2nc(N[C@H]3CCCC[C@@H]3N)nc3cc[nH]c(=O)c23)cc(OC)c1 = Y
CC(=O)Nc1ccc2c(c1)oc(=O)c1cc(NC(C)=O)ccc12 = N

Per the assay record, what outcome was assigned to C=C1CC[C@@H]2[C@](C)(COC(C)=O)[C@H](OC(C)=O)CC[C@@]2(C)[C@@H]1CC(Nc1ccc(S(=O)(=O)Nc2nccc(C)n2)cc1)C1=CCOC1=O (some centres undefined) ?
N

Ok, now C[C@@H]1CN(CC(=O)N2CC(C)(C)c3nc(CO)c(Cc4ccc(F)cc4)cc32)[C@@H](CN2CCOC[C@H]2C)CN1
N

Ok, now CC(C)(C)c1ccc(S(=O)(=O)N[C@H]2CC[C@H]3[C@@H]4CCc5cc(OS(=O)(=O)O)ccc5[C@H]4CC[C@]23C)cc1
N

---

# System: KM12 colon
# protocol_text: NCI tumour cell line growth inhibition, 48 h; in the data active = GI50 below about 0.43 µM; inactive = the rest
Mark one answer only. Choices: 1.0 = active, 0.0 = inactive

Here are 3 compounds together with their reported answers.
CC[C@H](CC#N)OC(=O)N[C@@H](C)c1cccc(NC(=O)Nc2ccc(-c3cnco3)c(OC)c2)c1 = 1.0
Nc1cc(N)c(N)cc1N = 0.0
CC(=O)[O-].CC(=O)[O-].[NH2-].[Pt+2].c1ccc2cnccc2c1 = 0.0

Per the assay record, what outcome was assigned to COc1ccc(-c2cn(-c3ccccc3)c(-c3ccccc3)n2)cc1OC ?
0.0

Ok, now COC(=O)CNC(=O)[C@@H](OC)[C@@H]1Cc2cc3cc(OC4CC(OC5CC(O)C(O)C(C)O5)C(O)C(C)O4)c(C)c(O)c3c(O)c2C(=O)[C@H]1OC1CC(OC2CC(OC3CC(C)(O)C(O)C(C)O3)C(O)C(C)O2)C(O)C(C)O1 (stereo not given in full)
1.0

---

# Test system: 786-0 renal
# protocol_text: NCI tumour cell line growth inhibition, 48 h; in the data active = GI50 below about 0.43 µM; inactive = the rest
Mark one answer only. Choices: active, inactive

Here are 8 compounds together with their reported answers.
CC(=O)O[C@@H]1CC2C(C)(C)CCCC2(C)C2=C1C(=O)C(C(C)C)=CC2=O (stereo partly specified) = inactive
COc1ccc(-c2cncn2-c2ccc(OC)cc2)cc1 = inactive
Oc1ccc(CCCCCCc2ccc(O)cc2)cc1 = inactive
CC[C@H](CC#N)OC(=O)N[C@@H](C)c1cccc(NC(=O)Nc2ccc(-c3cnco3)c(OC)c2)c1 = active
C[C@H]1[C@H](C)CC[C@]2(C(=O)O)CC[C@]3(C)C(=CC[C@@H]4[C@@]5(C)C/C(=C/c6cccnc6)[C@H](O)C(C)(C)[C@@H]5CC[C@]43C)[C@H]12 = inactive
Cn1ccnc1C(=O)/C=C/c1ccc(CC(=O)Nc2ccccc2)cc1 = inactive
CC(=O)OCC1OC(n2ccc(=O)[nH]c2=O)C(OC(C)=O)C1OC(C)=O (stereo unspecified) = inactive
CCOP(=O)(OCC)C(NC(c1ccccc1)c1ccccc1)c1cccc2ccccc12 (stereo unspecified) = inactive

Per the assay record, what outcome was assigned to CCN(Cc1ccccc1OC)c1ccc(CO)c(Cl)c1 ?
inactive

Ok, now Clc1nc(Cl)c2ncn(Cc3ccc(COc4cccc(OCc5ccc(Cn6cnc7c(Cl)nc(Cl)nc76)cc5)c4)cc3)c2n1
inactive

Ok, now C[C@@H]1CN(CC(=O)N2CC(C)(C)c3nc(CO)c(Cc4ccc(F)cc4)cc32)[C@@H](CN2CCOC[C@H]2C)CN1
inactive
